assay: qHTS assay to identify small molecule antagonists of the estrogen related receptor (ERR) signaling pathway from Tox21 library - cell viability counter screen (AID 1224834); details: ERR reporter cells viability, CellTiter-Fluor, 17.5 h; series mostly up to 92.4 µM; note: nearly all actives have a fitted effect of over 30% in size
Inconclusive results are not listed. Activity calls are given as the source filed them. Calls come from the whole dose curve; as a rule, active = well fitted cell-killing curve with a large enough effect in the repeat runs; inconclusive = weak or mixed curves; inactive = flat fitted curve, though single readings scatter.
reported property: outcome

O=C(CCl)c1ccccc1    inactive
Cc1cc(Cl)ccc1OCCCC(=O)O    inactive
Oc1cc(Cl)c(Cl)cc1Cl    inactive

====

assay: qHTS assay to identify small molecule agonists of the RXR signaling pathway - cell viability counter screen (AID 1159529); settings: RXR-alpha-bla HEK293T viability, CellTiter-Glo, 16 h; series mostly up to 76.8 µM; note: nearly all actives have a fitted effect of over 50% in size
Records with an inconclusive call do not appear. Activity calls are given as the source filed them. Calls come from the whole dose curve; as a rule, active = well fitted cell-killing curve with a large enough effect in the repeat runs; inconclusive = weak or mixed curves, or effect the other way; inactive = no such curve, though single readings can be large or run the other way.
Mark one answer only. Choices: active, inactive

Study these solved cases before continuing.
CCCCC(CC)COC(=O)c1ccc(C(=O)OCC(CC)CCCC)c(C(=O)OCC(CC)CCCC)c1 (stereo unspecified)    inactive
CCCCCc1cc(O)cc(O)c1    inactive
O=Cc1ccco1    inactive
C=C(C)C(=O)OCC1CO1 (stereo unspecified)    inactive
NNC(N)=S    active
Nn1cnnc1    inactive

Assay result, entry `Cc1ccc(N)c(N)c1` — outcome?
inactive

So what was the verdict on `CCCCOCCOP(=O)(OCCOCCCC)OCCOCCCC` in this test?
inactive

Test call, this compound: `C=CC(=O)OCCO`
inactive

Hello, I am checking results. What call was entered for `CCOc1cc(Oc2ccc(C(F)(F)F)cc2Cl)ccc1[N+](=O)[O-]` ?
inactive

====

assay: qHTS assay to identify small molecule antagonists of the progesterone receptor (PR) signaling pathway - cell viability counter screen (AID 1346798); conditions: PR-UAS-bla HEK293T viability, CellTiter-Glo luminescence, 16 h; series mostly up to 92.4 µM; note: nearly all actives have a fitted effect of over 50% in size
Results filed as inconclusive are left out. The source made the active and inactive calls. The call rests on the fitted dose curve; in most records, active means well fitted cell-killing curve with a large enough effect in the repeat runs; inconclusive means weak or mixed curves, or effect the other way; inactive means no such curve, though single readings can be large or run the other way.
The reply should be one of these categories: active, inactive

Examples with answers:
c1ccc(NNc2ccccc2)cc1    inactive
c1ccc(-c2cccc(-c3ccccc3)c2)cc1    inactive
Oc1cc(Cl)ccc1Oc1ccc(Cl)cc1Cl    active
CCCCCCOC(=O)c1ccccc1C(=O)OCCCCCC    inactive
Nc1cccnc1    inactive
NC(=S)Nc1ccccc1    inactive

Please find the next molecule below.
Per the assay record, what outcome was assigned to `CCN(N=O)C(N)=O` ?
inactive

====

Experiment: qHTS assay to identify small molecule antagonists of the vitamin D receptor (VDR) signaling pathway - cell viability counter screen (AID 743225); note: nearly all actives have a fitted effect of over 50% in size
Conditions: VDR-bla HEK293T viability, CellTiter-Glo luminescence, 16 h; series mostly up to 61 µM
Description: U.S. Tox21 Program National Center for Advancing Translational Sciences [NCATS] NIH Chemical Genomics Center [NCGC] U.S. Environmental Protection Agency [EPA] National Institutes of Environmental Health Sciences [NIEHS] National Toxicology Program [NTP] U.S. Food and Drug Administration [FDA] Tox21 Assay Overview: The vitamin D receptor (VDR), a member of nuclear hormone receptor superfamily, plays a critical role in calcium homeostasis and bone metabolism. […]
Records with an inconclusive call do not appear. Active and inactive are the calls of the source. Calls follow the shape of the dose curve; as a rule, active = well fitted cell-killing curve with a large enough effect in the repeat runs; inconclusive = weak or mixed curves, or effect the other way; inactive = no such curve, though single readings can be large or run the other way.
Hello, when you answer, please use one of the following outcomes: active, inactive

Nc1ccc(Cl)cc1N    inactive
NNC(N)=S    inactive
CCCCCCOC(=O)c1ccccc1C(=O)OCCCCCC    inactive
c1ccc(-c2cccc(-c3ccccc3)c2)cc1    inactive
Oc1cc(Cl)ccc1Cl    inactive
C#CCOS(=O)OC1CCCCC1Oc1ccc(C(C)(C)C)cc1 (stereo not drawn)    active

Name the outcome recorded for CCOC(=O)C(C)OC(=O)c1cc(Oc2ccc(C(F)(F)F)cc2Cl)ccc1[N+](=O)[O-] (stereo not drawn) in the assay.
inactive

Fill in: this test's call for `CNC(=O)N(C)c1nnc(C(C)(C)C)s1` is ___
inactive

// return assay outcome for `CCN(CC)C(=O)SCc1ccc(Cl)cc1`
inactive

What outcome does the record of this test show for CC(O)CCO (stereo not drawn) ?
inactive

Test call for this compound, please: `O=[N+]([O-])c1c(Cl)c(Cl)c(Cl)c(Cl)c1Cl`
inactive

Entry `NNC(=S)NN` : call = ?
inactive

Query: recorded result category for `COP(=S)(OC)Oc1ccc([N+](=O)[O-])cc1` in this test
inactive
